Assay: soluble on expression in E. coli; label from the status in PepcDB or PDB records
QUANTITY MEASURED: soluble on expression in E. coli

Guide cases for soluble on expression in E. coli, answers given:
# SEQUENCE ENTRY, soluble on expression in E. coli
data = [
    ("QQEYMKVGKFSPESNRSRWLVTRGATMTTKDTTRNMTMNTNLGGYQVLEIFRKLETPEAVTAFEGLSIPEPGLEPRFCVREGEQEVPVTTRYTDEAFWQVFDFSFVAGKHYTEADARSNIAVAVITDRLARRFFGSSSEAVGRQALINGRKYTVCGVVRHVTPFCDFAYGDVWMPVFRLYEERVKNNLFSRFNVICLAKSPKDFDAIKEEVGALTAKCNSVQEKFNISFPGQPADQFTTMHRKFHRDDTEPLEYRRR", "not soluble"),
    ("MKKVGILNSEISKIVADMGHMDTLAVVDLGFPIPQGVKKVDLVVDRGKPGLMEVIEILLRELKVERIILAKEMDEKSIQTKQELLKLIEKMNGPVEVVTVPHKEFKEMSKNVKGIIRTGADIPYSNVILVGGVIF", "soluble"),
    ("MSLFINKEAELQWVREYARRSHATPFVIYGPEGCGKTALALEAVRRFSSWYAGGIALYIDGKARRAAEAVKSNVNIGDVLAEVGGLAGSVGRSAARLAVWLLGKIVEKIAERFAPMNILVVDELFSAVGVSEGALAVKYAKELGDRVLRSKKAELGEIPKPLAEASVSYLIFSSEGSSRRELSRHNWAHIALMWNMGERGFQQLGEILGAPDFSAAWRLCGGQPPLPFPISRAGLGRGKIPNSNREGHHHHHH", "soluble"),
    ("MLKQSMHSFVLLYPNVLLEGWNVEKVSERYEGEKWGTFWFQVVTPTGMFRVKEFFLDIMEPVFPDSCISQAKGDCFQYKGLVYWKGINYKGKESYVTSIWKTQVEISVDHGYVNQDEMERFLFELQPVNMELGKTILHTSFHLLSFQAKRSEMGEIGRCREWNAPDDVSYVNLLIHEKLNWKLESVGFGNDETQYVYWDEVNKLYALWVCRHKNKAYYPISSWTMNYGPKQIINGLEFYSHPNRGTVVYEDLGNEQIAYVFRGNPCTNFEQVKELFACL", "not soluble"),
    ("MGSDKIHHHHHHMNIAFVINPVAGLGATLNLKGSDGLALEDVSKSISIVRSHRFLKKLDFNGLHFFVPSGCMGESEVSIYTKEYDVIYTPSSPTTRQDTINFVKSIESADLLVFVGGDGTARDILNSRNDLPVIGVPAGVKMYSSVFAISPERAADAVNQVAKGNYRIDKAEVVDIDEELYRKGILSVKRYGQLKVPEAQYIVENSKAEYDIAGAEDIAEYVIEHMADETYIIGPGNTCKTIEEEMGIKSNVLGFDILRNKKLIKEDASESEIYEACSDKCMLVISPVGGQNFLLGRGNKQISDRILERVGEENLIVVSSPSKAEHLKYVYIDTQIPLWSNGYVKVLVGYGRYKLVKVIR", "not soluble"),
]

soluble on expression in E. coli for `MGHHHHHHSHMNGEIMDDSLKTSLITEEEDSTSEVLDEELKLQPFNSSEDSTNLVPLVVESSKPPEVDAPDKTPRIPDSEMLMDEGTSDEKGHMEEKLSLLPRKKAHLGSSDNVATMSNEERSDGGFPNSVIAEFSEEPVSENLSPNTTSSLEDQGEEGVSEPQETSTALPQSSLIEVELEDVPFSQNAGQKNQSEEQSEASSEQLDQFTQSAEKAVDSSSEEIEVEVPVVDRRNLRRKAKGHKGPAKKKAKLT` is not soluble

So, `MSLDSWSRNFELLINSRTPLIWIRTKEEERLYKVIDKSCKKLNIKRFVSWDCVNGIKGVLNENGKFSNNPMGVLNWIKAQTSEIPTILLVRDFHKFYDDPSISRTIKELSSSLRETNNNLILSSHILPSSEELDDLITILNLPLPDLSELTALIKKIAFNTDSDLSEQDLNELAIASSGLSEIKVKQVTAKALAQRGKISKFDIKDMLEEKKQVIARSEGHHHHHH` ? Its soluble on expression in E. coli was soluble

Kindly note the recorded soluble on expression in E. coli for `MSLEAVIFDMDGVLMDTEPLYFEAYRRVAESYGKPYTEDLHRRIMGVPEREGLPILMEALEIKDSLENFKKRVHEEKKRVFSELLKENPGVREALEFVKSKRIKLALATSTPQREALERLRRLDLEKYFDVMVFGDQVKNGKPDPEIYLLVLERLNVVPEKVVVFEDSKSGVEAAKSAGIERIYGVVHSLNDGKALLEAGAVALVKPEEILNVLKEVLEGHHHHHH` , which is soluble

Record `ASRPHQWQTDEEGVRTGKCSFPVKYLGHVEVDESRGMHICEDAVKRLKATGKKAVKAVLWVSADGLRVVDEKTKDLIVDQTIEKVSFCAPDRNFDRAFSYICRDGTTRRWICHCFMAVKDTGERLSHAVGCAFAACLERKQKR` , field soluble on expression in E. coli: soluble

The measured soluble on expression in E. coli associated with `MSLYKAVFSDFNGTLLTSQHTISPRTVVVIKRLTANGIPFVPISARSPLGILPYWKQLETNNVLVAFSGALILNQNLEPIYSVQIEPKDILEINTVLAEHPLLGVNYYTNNDCHARDVENKWVIYERSVTKIEIHPFDEVATRSPHKIQIIGEAEEIIEIEVLLKEKFPHLSICRSHANFLEVMHKSATKGSAVRFLEDYFGVQTNEVIAFGDNFNDLDMLEHVGLGVAMGNAPNEIKQAANVVTATNNEDGLALILEEKFPEEGHHHHHH` reads soluble

Memo: `MGSDKIHHHHHHMYKFNPQRIQIGISACLLGEKVRFDGGHKNSTYCNQEIKQFFDYVPICPEMAIGLGAPRKSIRLVRDGETILVQSGDGSLDVTDKLNEYSENKVEELDFLGGYLLCAKSPTCGMERVTEYKIGTNNGSKSGIGVFARKLMERYPLLPVEEEGRLHDMVLRENFFTRVYAYHDWHLMKHEGLTKHKLVKFHSRYKYLLMAHSPTWYRELGPIVANIEDLEQSATRYFEGFMTALKINATRKNHTSTLQHIQGYFKKHLSKEQKTELSEAIMKYREGLLPLLVPITLINHYLREFPTPYIEEQVYLNPHPEALKLRYAY` , reported soluble on expression in E. coli: not soluble
